target: S1P1 receptor (human Endothelial Differentiation Gene 1 (EDG1)) (Homo sapiens, UniProt P21453); construct: TEV protease site; Gal4-VP16 transcription factor; test: S1P1 Tango Assay - 384 Well Format (EDG1-bla/U2OS cells); details: agonist, beta-lactamase reporter
Sequence (P21453 whole entry, the tested form may be a part): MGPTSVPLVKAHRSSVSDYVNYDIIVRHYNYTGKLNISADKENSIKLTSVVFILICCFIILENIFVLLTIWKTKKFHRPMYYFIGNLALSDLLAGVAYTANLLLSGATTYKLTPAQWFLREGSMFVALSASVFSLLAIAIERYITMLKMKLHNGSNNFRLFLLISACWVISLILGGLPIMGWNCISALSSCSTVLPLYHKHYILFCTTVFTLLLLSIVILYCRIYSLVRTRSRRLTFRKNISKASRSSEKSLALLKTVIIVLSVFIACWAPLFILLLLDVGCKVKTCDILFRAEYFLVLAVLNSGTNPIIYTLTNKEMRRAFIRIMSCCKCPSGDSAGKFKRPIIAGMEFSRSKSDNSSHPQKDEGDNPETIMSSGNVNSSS
Catalogue of EC50 values

Cpd Smiles: CCc1cc(OCCCC(=O)O)ccc1-c1noc(-c2ccc(OC(C)C)c(Cl)c2)n1
EC50: ≤ 0.1 nM
//
Cpd Smiles: CC(C)Oc1ccc(-c2nc(-c3ccc(OCC(=O)O)cc3Cl)no2)cc1C#N
EC50: ≤ 10 nM
//
Cpd Smiles: CNCCCOc1ccc(-c2noc(-c3ccc(OC(C)C)c(C#N)c3)n2)c(Cl)c1
EC50: ≤ 1 nM
//
Cpd Smiles: CCc1cc(OCCCNC)ccc1-c1nnc(-c2ccc(OC(C)C)c(C#N)c2)s1
EC50: ≤ 1000 nM
//
Cpd Smiles: CC(C)Oc1ccc(-c2nc(-c3ccc(OCCCC(=O)O)cc3F)no2)cc1C#N
EC50: ≤ 0.1 nM
//
Cpd Smiles: CC(C)Oc1ccc(-c2nc(-c3ccc(OCC(=O)O)cc3)no2)cc1C#N
EC50: ≤ 100 nM
//
Cpd Smiles: CC(C)Oc1ccc(-c2nc(-c3ccc(OCCCCC(=O)O)cc3F)no2)cc1C#N
EC50: ≤ 1 nM

Next, consider the following compound.
Find the recorded EC50 belonging to CNCCCOc1ccc(-c2noc(-c3ccc(OC(C)C)c(Cl)c3)n2)c(C)c1 and report it.
≤ 10 nM

* * *

Catalogue of EC50 values
biological target: S1P1 receptor (human Endothelial Differentiation Gene 1 (EDG1)) (Homo sapiens); construct: TEV protease site; Gal4-VP16 transcription factor; assay: S1P1 Tango Assay - 384 Well Format (EDG1-bla/U2OS cells); conditions: agonist, beta-lactamase reporter

Cpd Smiles: Cc1cc(OCCCC(=O)O)ccc1-c1noc(-c2ccc(OC(C)C)c(Cl)c2)n1
Result: ≤ 0.1 nM
--
Cpd Smiles: CCc1cc(OCCCNC)ccc1-c1nnc(-c2ccc(OC(C)C)c(C#N)c2)o1
Result: ≤ 100 nM

Next, consider the following compound.
Provide value of EC50 for this record tested with S1P1 receptor (human Endothelial Differentiation Gene 1 (EDG1)) (Homo sapiens): Cc1cc(OCCCCC(=O)O)ccc1-c1noc(-c2ccc(OC(C)C)c(Cl)c2)n1
≤ 1 nM

* * *

molecular target: S1P1 receptor (human Endothelial Differentiation Gene 1 (EDG1)) (Homo sapiens, UniProt P21453); construct: TEV protease site; Gal4-VP16 transcription factor; assay: S1P1 Tango Assay - 384 Well Format (EDG1-bla/U2OS cells); settings: agonist, beta-lactamase reporter
Quantity Name: EC50

Compound: CCc1cc(OCCCC(=O)O)ccc1-c1cnc(-c2ccc(OC(C)C)c(C#N)c2)s1 [Example 43]
EC50: ≤ 1 nM
--
Compound: CCc1cc(OCCCC(=O)O)ccc1-c1nsc(-c2ccc(OC(C)C)c(C#N)c2)n1 [Example 42]
EC50: ≤ 10 nM

Find the recorded EC50 belonging to CCc1cc(OCCCNC)ccc1-c1noc(-c2ccc(OC(C)C)c(C#N)c2)n1 [Example 39] and report it.
≤ 1 nM

* * *

target: S1P1 receptor (human Endothelial Differentiation Gene 1 (EDG1)) (Homo sapiens); construct: TEV protease site; Gal4-VP16 transcription factor; test: S1P1 Tango Assay - 384 Well Format (EDG1-bla/U2OS cells); conditions: agonist, beta-lactamase reporter
pEC50: −log10 of the molar value.
Quantity Name: pEC50

Illustrative cases are given below, each with its answer.
Cpd Smiles: CNCCOc1ccc(-c2noc(-c3ccc(OC(C)C)c(C#N)c3)n2)c(Cl)c1
Result: ≥ 9.00

Cpd Smiles: Cc1cc(OCC(=O)O)ccc1-c1noc(-c2ccc(OC(C)C)c(Cl)c2)n1
Result: ≥ 9.00

Cpd Smiles: CCc1cc(OCC(=O)O)ccc1-c1noc(-c2ccc(OC(C)C)c(Cl)c2)n1
Result: ≥ 9.00

Cpd Smiles: CCNCCCCOc1ccc(-c2noc(-c3ccc(OC(C)C)c(C#N)c3)n2)c(Cl)c1
Result: ≥ 8.00

Next, consider the following molecule.
Find the recorded pEC50 belonging to CCc1cc(OCCCCC(=O)O)ccc1-c1noc(-c2ccc(OC(C)C)c(C#N)c2)n1 and report it.
≥ 10.00
